# Test system: Danio rerio embryo/larva
# assayText: max % larvae generally abnormal across tested concentrations; higher = more toxic; extreme values may be limits of the assay
# reportedConditions: exposure: 6-8 hpf to 5 dpf, scored at 6 dpf
assayEndpoint: max % larvae generally abnormal across tested concentrations (%)

INSERT INTO measurements (molecule, measurednumber) VALUES
  ('OCCCC(F)(F)C(F)(F)C(F)(F)C(F)(F)C(F)(F)C(F)(F)C(F)(F)F [7:3 Fluorotelomer alcohol] (max tested concentration (log10 uM): 2)', 22.2),
  ('OCC(F)(F)C(F)(F)C(F)(F)F [3:1 Fluorotelomer alcohol] (max tested concentration (log10 uM): 2)', 8.33),
  ('C=C(C)C(=O)OCCC(F)(F)C(F)(F)C(F)(F)C(F)(F)C(F)(F)C(F)(F)F [2-(Perfluorohexyl)ethyl methacrylate] (max tested concentration (log10 uM): 2)', 0),
  ('OCC(F)(F)C(F)(F)C(F)(F)C(F)(F)C(F)(F)C(F)(F)CO [1H,1H,8H,8H-Perfluorooctane-1,8-diol] (max tested concentration (log10 uM): 2)', 52.1),
  ('O=P(O)(O)OCCC(F)(F)C(F)(F)C(F)(F)C(F)(F)C(F)(F)C(F)(F)F [6:2 Fluorotelomer phosphate monoester] (max tested concentration (log10 uM): 2)', 0);

* * *

# Test system: Danio rerio embryo/larva
# assayText: max % larvae with any abnormality across tested concentrations; max tested concentration (log10 uM): 2; higher = more toxic; extreme values may be limits of the assay
# reportedConditions: exposure: 6-8 hpf to 5 dpf, scored at 6 dpf
assayEndpoint: max % larvae (%)

INSERT INTO assay_data (compound, measurednumber) VALUES
  ('O=C(O)C(F)(F)C(F)(F)C(F)(F)C(F)(F)C(F)(F)C(F)(F)C(F)(F)C(F)(F)C(F)(F)C(F)(F)F', 100),
  ('C=C(C)C(=O)OCCC(F)(F)C(F)(F)C(F)(F)C(F)(F)C(F)(C(F)(F)F)C(F)(F)F [(Perfluoro-5-methylhexyl)ethyl 2-methylprop-2-enoate]', 0),
  ('O=C(O)C=CC(F)(C(F)(F)F)C(F)(F)F', 16.7),
  ('NS(=O)(=O)C(F)(F)C(F)(F)C(F)(F)C(F)(F)C(F)(F)C(F)(F)C(F)(F)C(F)(F)F [Perfluorooctanesulfonamide]', 100),
  ('C=CC(=O)OCCC(F)(F)C(F)(F)C(F)(F)C(F)(F)C(F)(F)C(F)(F)C(F)(F)C(F)(F)F [2-(Perfluorooctyl)ethyl acrylate]', 0),
  ('OCCC(F)(F)C(F)(F)C(F)(F)C(F)(F)C(F)(F)C(F)(F)F', 89.6),
  ('NC(=O)C(F)(F)C(F)(F)C(F)(F)C(F)(F)C(F)(F)C(F)(F)C(F)(F)F [Perfluorooctanamide]', 0),
  ('FC(F)(F)C(F)(F)C(F)(F)CC1CO1 (stereo not drawn) [1H,1H-Heptafluorobutyl epoxide]', 9.09),
  ('C=C(C)C(=O)OCC(F)(F)C(F)(F)C(F)(F)F [(Perfluoropropyl)methyl methacrylate]', 8.33),
  ('O=C(O)C(F)(F)C(F)(F)C(F)(F)OC(F)(C(F)(F)F)C(F)(F)F', 0),
  ('C=CC(=O)OCC(F)(F)C(F)(F)C(F)(F)C(F)(F)C(F)(F)C(F)(F)C(F)(F)F [1H,1H-Perfluorooctyl acrylate]', 0),
  ('C=C(C)C(=O)OCCC(F)(F)C(F)(F)C(F)(F)C(F)(F)C(F)(F)C(F)(F)C(F)(F)C(F)(F)F [2-(Perfluorooctyl)ethyl methacrylate]', 0),
  ('O=P(O)(O)CCC(F)(F)C(F)(F)C(F)(F)C(F)(F)C(F)(F)C(F)(F)C(F)(F)C(F)(F)F', 100);

* * *

# System: Danio rerio embryo/larva
# assayText: max % larvae with blood pooling across tested concentrations; higher = more toxic; extreme values may be limits of the assay
# reportedConditions: exposure: 6-8 hpf to 5 dpf, scored at 6 dpf
assayEndpoint: max % larvae

INSERT INTO measurements (compound, assayendpoint, result) VALUES
  ('NC(=O)C(F)(F)C(F)(F)C(F)(F)C(F)F [Perfluoropentanamide] (max tested concentration (log10 uM): 2)', 'max % larvae', '0%'),
  ('O=C(O)C(F)(F)C(F)(F)OC(F)(F)F [Perfluoro-3-methoxypropanoic acid] (max tested concentration (log10 uM): 2)', 'max % larvae', '16.7%'),
  ('OCC(F)(F)C(F)(F)C(F)(F)C(F)(F)C(F)(F)C(F)(F)CO [1H,1H,8H,8H-Perfluorooctane-1,8-diol] (max tested concentration (log10 uM): 2)', 'max % larvae', '0%'),
  ('FC(F)(F)C(F)(F)C(F)(F)CC1CO1 (stereo unspecified) [1H,1H-Heptafluorobutyl epoxide] (max tested concentration (log10 uM): 2)', 'max % larvae', '9.09%'),
  ('O=C(O)CCC(F)(F)C(F)(F)C(F)(F)F [3:3 Fluorotelomer carboxylic acid] (max tested concentration (log10 uM): 2)', 'max % larvae', '10%'),
  ('O=C(O)C(F)(F)C(F)(F)C(F)(F)C(F)(F)C(F)(F)C(F)(F)C(F)(F)F [Ammonium perfluorooctanoate] (max tested concentration (log10 uM): 2)', 'max % larvae', '0%');

* * *

# Tested on: Danio rerio embryo/larva
# assayText: max % larvae generally abnormal across tested concentrations; higher = more toxic; extreme values may be limits of the assay
# reportedConditions: exposure: 6-8 hpf to 5 dpf, scored at 6 dpf
assayEndpoint: max % larvae generally abnormal across tested concentrations (%)

INSERT INTO assay_data (compound, measurednumber) VALUES
  ('O=C(O)C(F)(F)C(F)(F)C(F)(F)C(F)(F)C(F)(F)F [Perfluorohexanoic acid] (max tested concentration (log10 uM): 2)', 0),
  ('O=C(O)C(F)(F)C(F)(F)C(F)(F)C(F)(F)C(F)(F)C(F)(F)C(F)(F)C(F)F [9H-Perfluorononanoic acid] (max tested concentration (log10 uM): 2)', 10.4),
  ('CNS(=O)(=O)C(F)(F)C(F)(F)C(F)(F)C(F)(F)C(F)(F)C(F)(F)C(F)(F)C(F)(F)F [N-Methylperfluorooctanesulfonamide] (max tested concentration (log10 uM): 2)', 50),
  ('OCC(F)(F)C(F)(F)C(F)(F)CO [Hexafluoroamylene glycol] (max tested concentration (log10 uM): 2)', 0),
  ('C=CC(=O)OCCC(F)(F)C(F)(F)C(F)(F)C(F)(F)F [2-(Perfluorobutyl)ethyl acrylate] (max tested concentration (log10 uM): 2)', 50),
  ('CCCCCCCCC(F)(F)C(F)(F)C(F)(F)C(F)(F)C(F)(F)C(F)(F)F [1-(Perfluorohexyl)octane] (max tested concentration (log10 uM): 1.60206)', 0),
  ('C[N+](C)(C)CCCNS(=O)(=O)C(F)(F)C(F)(F)C(F)(F)C(F)(F)C(F)(F)C(F)(F)C(F)(F)C(F)(F)F (max tested concentration (log10 uM): 1.47712)', 50),
  ('CCN(CCO)S(=O)(=O)C(F)(F)C(F)(F)C(F)(F)C(F)(F)C(F)(F)C(F)(F)C(F)(F)C(F)(F)F [N-Ethyl-N-(2-hydroxyethyl)perfluorooctane sulfonamide] (max tested concentration (log10 uM): 2)', 8.33),
  ('NS(=O)(=O)C(F)(F)C(F)(F)C(F)(F)C(F)(F)C(F)(F)C(F)(F)F [Perfluorohexanesulfonamide] (max tested concentration (log10 uM): 0.477121)', 85),
  ('C=CC(=O)OCC(F)(F)C(F)(F)C(F)(F)COC(=O)C=C [1H,1H,5H,5H-Perfluoro-1,5-pentanediol diacrylate] (max tested concentration (log10 uM): 1)', 33.3),
  ('OCC(F)(F)OC(F)(F)C(F)(F)OC(F)(F)CO [1H,1H,8H,8H-Perfluoro-3,6-dioxaoctane-1,8-diol] (max tested concentration (log10 uM): 2)', 0),
  ('O=S(=O)(O)CCC(F)(F)C(F)(F)C(F)(F)C(F)(F)F [4:2 Fluorotelomer sulfonic acid] (max tested concentration (log10 uM): 2)', 0),
  ('CN(C(=O)C(F)(F)C(F)(F)C(F)(F)F)[Si](C)(C)C [N-Methyl-N-trimethylsilylheptafluorobutyramide] (max tested concentration (log10 uM): 2)', 0),
  ('NC(=O)C(F)(F)C(F)(F)C(F)(F)C(F)(F)C(F)(F)C(F)(F)C(F)(F)F [Perfluorooctanamide] (max tested concentration (log10 uM): 2)', 0),
  ('O=C(O)CCC(F)(F)C(F)(F)C(F)(F)C(F)(F)C(F)(F)C(F)(F)F [3-(Perfluorohexyl)propanoic acid] (max tested concentration (log10 uM): 1)', 25),
  ('O=C(O)C(F)(F)C(F)(F)C(F)(F)C(F)(F)F [Perfluoropentanoic acid] (max tested concentration (log10 uM): 2)', 16.7),
  ('OCC(F)(F)C(F)(F)C(F)(F)C(F)(F)C(F)(F)C(F)(F)C(F)(F)C(F)(F)C(F)(F)C(F)(F)C(F)(F)F [11:1 Fluorotelomer alcohol] (max tested concentration (log10 uM): 1.30103)', 0),
  ('N=C(N)C(F)(F)C(F)(F)C(F)(F)C(F)(F)C(F)(F)C(F)(F)C(F)(F)F [Perfluorooctanamidine] (max tested concentration (log10 uM): 1)', 8.33),
  ('C=C(C)C(=O)OCCC(F)(F)C(F)(F)C(F)(F)C(F)(F)C(F)(F)C(F)(F)C(F)(F)C(F)(F)F [2-(Perfluorooctyl)ethyl methacrylate] (max tested concentration (log10 uM): 2)', 0),
  ('O=C(Cl)C(F)(F)C(F)(F)C(F)(F)C(=O)Cl [Hexafluoroglutaryl chloride] (max tested concentration (log10 uM): 2)', 0);
